Attribution: patent US8598202B2

EXPERIMENTAL SYSTEM: FAAH (Homo sapiens)
Sequence (O00519 whole entry): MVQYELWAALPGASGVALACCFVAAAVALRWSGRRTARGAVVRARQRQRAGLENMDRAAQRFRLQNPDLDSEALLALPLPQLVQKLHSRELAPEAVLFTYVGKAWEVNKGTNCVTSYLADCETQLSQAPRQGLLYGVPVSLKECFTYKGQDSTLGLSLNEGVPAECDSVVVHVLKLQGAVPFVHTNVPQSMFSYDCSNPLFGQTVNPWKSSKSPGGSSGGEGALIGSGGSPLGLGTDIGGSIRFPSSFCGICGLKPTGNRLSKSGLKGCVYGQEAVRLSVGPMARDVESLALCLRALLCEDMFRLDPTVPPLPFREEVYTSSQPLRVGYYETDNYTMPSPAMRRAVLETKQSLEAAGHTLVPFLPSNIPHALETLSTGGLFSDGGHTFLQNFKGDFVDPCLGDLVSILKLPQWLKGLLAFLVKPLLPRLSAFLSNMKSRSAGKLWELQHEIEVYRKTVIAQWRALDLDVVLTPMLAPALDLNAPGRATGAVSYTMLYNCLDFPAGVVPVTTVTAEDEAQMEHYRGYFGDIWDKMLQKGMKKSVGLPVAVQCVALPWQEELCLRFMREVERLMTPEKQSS
EXPERIMENTAL DETAILS: Assay Method 1: FAAH assay, 3H-anandamide hydrolysis in homogenate of T84 cells or SK-N-MC cells transfected with human FAAH
pIC50: −log10 of the molar value. Counter-ions that a name gives are not always drawn.
Parameter threshold = 7. Response is Satisfied when pIC50 meets or exceeds it, else Not satisfied.

# COMPOUND, LABEL VALUE
records = [
    ("CC(=O)Nc1cccc(-c2cc(NCC(O)c3ccccc3)ncn2)c1 (stereo not shown)", "Not satisfied"),
    ("CSc1nc(NC[C@H](O)c2ccccc2)cc(-c2ccc(C(F)(F)F)c(Cl)c2)n1 [Example 60, trifluoroacetic acid salt]", "Satisfied"),
    ("Oc1ccc(-c2cc(NCC(O)c3ccccc3)ncn2)cc1 (stereo not shown)", "Not satisfied"),
    ("OC(CNc1cc(-c2ccc(OC(F)(F)F)cc2)ncn1)c1ccc2c(c1)OC(F)(F)O2 (stereo not shown)", "Satisfied"),
    ("CSc1ccc(C(O)CNc2cc(-c3ccc(C(F)(F)F)c(Cl)c3)ncn2)cc1 (stereo not shown)", "Satisfied"),
    ("CCc1ccc(-c2cc(NCC(O)c3ccccc3)ncn2)cc1 (stereo not shown)", "Satisfied"),
    ("O[C@@H](CNc1cc(-c2cnc(N3CCOCC3)nc2)ncn1)c1ccccc1", "Not satisfied"),
    ("O[C@@H](CNc1cc(-c2ccc3c(c2)OC(F)(F)O3)ncn1)c1ccccc1", "Satisfied"),
    ("NCCNc1nc(NC[C@H](O)c2ccccc2)cc(-c2ccc(C(F)(F)F)c(Cl)c2)n1 [Example 157, trifluoroacetic acid salt]", "Not satisfied"),
    ("O[C@@H](CNc1cc(-c2ccc(Cl)c(F)c2)ncn1)c1ccccc1 [Example 27, trifluoroacetic acid salt]", "Satisfied"),
    ("OC(CNc1cc(-c2ccc(C(F)(F)F)c(Cl)c2)ncn1)c1cc(-c2ccc(Cl)cc2)no1 (stereo not shown)", "Satisfied"),
    ("O[C@@H](CNc1cc(-c2ccc(C(F)(F)F)cc2C(F)(F)F)ncn1)c1ccccc1 [Example 152, trifluoroacetic acid salt]", "Not satisfied"),
    ("OC(CNc1cc(-c2cccc(OC(F)(F)F)c2)ncn1)c1ccccc1 (stereo not shown)", "Not satisfied"),
]
